# Protocol: Pharmacokinetic evaluation (1): cassette PK in Balb/c male mice, plasma
# Format: in vivo
# Assay setup: male, Balb/c; mouse plasma, IV 1 mg/kg
# Procedure: Test compounds were mixed with 10% dimethyl sulfoxide/50% polyethylene glycol 200/40% water (compounds 1, 4, 10, 17) or 20% N,N-dimethylacetamide/80% water (compound 5), vortexed and sonicated to prepare a nearly clear solution of 0.08 mg/mL (compounds 1, 4, 10, 17) or 0.50 mg/mL (compound 5), then filtered through a microporous membrane for next step. […]
Reported property: half-life (h)
Answer with a number only, understood to be in h.

Quote half-life reported for Cc1cc2ncnn2cc1Nc1ncc2c(n1)n(N1CC3CCC(C1)O3)c(=O)n2C [Compound 5] please.
1.28
